System: HeLa cervical adenocarcinoma
Test: Inhibition of Cell Proliferation (14C-thymidine incorporation), HeLa
Type: cell-based
Conditions: Homo sapiens, HeLa cell line
METRIC: log10(IC50) (log10 of the value in nM)
All values: base-10 log of IC50 in nM.

[[record]]
compound = "Nc1nc(Nc2ccc(N3CCNC3=O)cc2)nn1C(=O)c1c(F)cccc1F"
assayed_target = "HeLa cervical adenocarcinoma"
result_value = 2.83

[[record]]
compound = "Nc1nc(Nc2ccc(S(N)(=O)=O)cc2)nn1C(=O)c1ccsc1"
assayed_target = "HeLa cervical adenocarcinoma"
result_value = 2.33

[[record]]
compound = "CCc1ccc(C(=O)n2nc(Nc3ccc(S(=O)(=O)NC)cc3)nc2N)s1"
assayed_target = "HeLa cervical adenocarcinoma"
result_value = 2.15

[[record]]
compound = "Cc1cc(C)c(C(=O)n2nc(Nc3ccc(S(=O)(=O)Nc4ccccn4)cc3)nc2N)s1"
assayed_target = "HeLa cervical adenocarcinoma"
result_value = 2.99

[[record]]
compound = "Nc1nc(Nc2ccc(S(N)(=O)=O)cc2)nn1C(=O)c1sccc1Br"
assayed_target = "HeLa cervical adenocarcinoma"
result_value = 2.82

[[record]]
compound = "Cc1nc(C)c(C(=O)n2nc(Nc3ccc(S(N)(=O)=O)cc3)nc2N)s1"
assayed_target = "HeLa cervical adenocarcinoma"
result_value = 2.85

[[record]]
compound = "Cc1ccc(F)c(C(=O)n2nc(N)nc2Nc2ccc(S(N)(=O)=O)cc2)c1F"
assayed_target = "HeLa cervical adenocarcinoma"
result_value = 4.45

[[record]]
compound = "CN1CCN(c2ccc(Nc3nc(N)n(C(=O)c4c(F)cccc4F)n3)cc2)CC1"
assayed_target = "HeLa cervical adenocarcinoma"
result_value = 3.28

[[record]]
compound = "Cc1ccsc1C(=O)n1nc(Nc2ccc(-n3cncn3)cc2)nc1N"
assayed_target = "HeLa cervical adenocarcinoma"
result_value = 3.53

[[record]]
compound = "Cc1cc(C)c(C(=O)n2nc(Nc3ccc(S(=O)(=O)NCCN(C)C)cc3)nc2N)s1"
assayed_target = "HeLa cervical adenocarcinoma"
result_value = 2.25


Quick request: log10(IC50) for each listed item, please.
1. Nc1nc(Nc2ccc(S(N)(=O)=O)cc2)nn1C(=O)c1sccc1F
2. CNS(=O)(=O)c1ccc(Nc2nc(N)n(C(=O)c3sc(C)cc3C)n2)cc1
3. CNS(=O)(=O)c1ccc(Nc2nc(N)n(C(=O)c3sccc3C)n2)cc1

1: 2.42; 2: 2.09; 3: 2.39

Quick request: log10(IC50) for each listed item, please.
1. Nc1nc(Nc2ccc(S(=O)(=O)N3CCCCC3)cc2)nn1C(=O)c1cccs1
2. Nc1nc(Nc2ccc(S(N)(=O)=O)cc2)nn1C(=O)C1CCCC1
3. Cc1ccc(F)c(C(=O)n2nc(Nc3ccc(N4CCNC4=O)cc3)nc2N)c1F
4. CCc1ccc(C(=O)n2nc(Nc3ccc(NS(C)(=O)=O)cc3)nc2N)s1
5. Nc1nc(Nc2ccc(S(N)(=O)=O)cc2)nn1C(=O)c1sccc1Cl
6. Cc1ccc(F)c(C(=O)n2nc(Nc3ccc(S(N)(=O)=O)cc3)nc2N)c1Cl
7. Cc1ccsc1C(=O)n1nc(Nc2ccc(N3CCCS3(=O)=O)cc2)nc1N

[3.07, 3.66, 3.40, 2.37, 2.33, 2.34, 2.58]

Quick request: log10(IC50) for each listed item, please.
1. Cc1ccsc1C(=O)n1nc(Nc2ccc(S(=O)(=O)NCCN(C)C)cc2)nc1N
2. CCc1ccc(C(=O)n2nc(Nc3ccc(S(=O)(=O)NCCN(C)C)cc3)nc2N)s1
3. CNS(=O)(=O)c1ccc(Nc2nc(N)n(C(=O)c3c(F)ccc(C)c3F)n2)cc1
4. Cc1ccc(F)c(C(=O)n2nc(Nc3ccc(S(=O)(=O)NCCN(C)C)cc3)nc2N)c1F

1. 2.27
2. 1.79
3. 2.28
4. 2.80

Quick request: log10(IC50) for each listed item, please.
1. Nc1nc(Nc2ccc(S(N)(=O)=O)cc2)nn1C(=O)c1c(F)cccc1F
2. CC(O)c1ccc(F)c(C(=O)n2nc(Nc3ccc(S(N)(=O)=O)cc3)nc2N)c1F (centres unmarked)

1. 2.45
2. 2.27

Quick request: log10(IC50) for each listed item, please.
1. Nc1nc(Nc2ccc(S(N)(=O)=O)cc2)nn1C(=O)C1CCCCC1
2. Cc1cc(C)c(C(=O)n2nc(Nc3ccc(-n4ccnc4)cc3)nc2N)s1

1. 2.43
2. 2.43

Quick request: log10(IC50) for each listed item, please.
1. Cc1ccsc1C(=O)n1nc(Nc2ccc(S(=O)(=O)Nc3ccccn3)cc2)nc1N
2. Cc1ccsc1C(=O)n1nc(Nc2ccc(NS(C)(=O)=O)cc2)nc1N
3. CC(C)(C)c1ccc(C(=O)n2nc(Nc3ccc(S(N)(=O)=O)cc3)nc2N)s1
4. Nc1nc(Nc2ccc(S(N)(=O)=O)cc2)nn1C(=O)c1c(F)cccc1Cl

2.49
2.68
2.34
2.29
